# Tested on: morningglory (Ipomoea spp.)
# Protocol: Test A pre/postemergence
# Type: in vivo
# Test parameters: Ipomoea, pre-emergence, 240 h, Preemergence, 500 g ai/ha; 0 to 100 scale where 0 is no effect and 100 is complete control; approximately ten days; read-out: Plant response rating, Morningglory
Quantity measured: pest or weed control at 500 g/ha (%)
Give your result in % as a bare value.

// query pest or weed control at 500 g/ha value for entry Nc1nc(C2CC2)nc(C(=O)[O-])c1Br.[Na+] [Compound 113, monosodium salt] 100

// query pest or weed control at 500 g/ha value for entry CCOC(=O)c1nc(-c2ccc3c(c2)OCO3)nc(N)c1Cl 30

// query pest or weed control at 500 g/ha value for entry CCOC(=O)c1nc(-c2ccc3ccccc3c2)nc(N)c1Cl 0

// query pest or weed control at 500 g/ha value for entry Nc1nc(C2CC2)nc(C(=O)[O-])c1Cl.[Na+] [Compound 77, monosodium salt] 100

// query pest or weed control at 500 g/ha value for entry CCOC(=O)c1nc(-c2ccc3c(c2)OCO3)nc(N)c1Br 0

// query pest or weed control at 500 g/ha value for entry COC(=O)c1nc(-c2ccc(Br)cc2)nc(N)c1Cl 80

// query pest or weed control at 500 g/ha value for entry COC(=O)c1nc(C(C)C)nc(N)c1Cl 90

// query pest or weed control at 500 g/ha value for entry COC(=O)c1nc(-c2ccc(Cl)cc2)nc(N)c1Cl 25

// query pest or weed control at 500 g/ha value for entry CNC(=O)c1nc(C2CC2)nc(N)c1Cl 50

// query pest or weed control at 500 g/ha value for entry NC(=O)c1nc(C2CC2)nc(N)c1Br 60

// query pest or weed control at 500 g/ha value for entry CNc1nc(C2CC2)nc(C(=O)OC)c1Cl 100

----------
Give measured pest or weed control at 500 g/ha for each item. Keep answers brief.
# Test system: pigweed (Amaranthus retroflexus)
# Protocol: Test B pre/postemergence
# Assay type: in vivo
# Test parameters: Amaranthus retroflexus, pre-emergence, Preemergence, 500 g ai/ha; scale 0 to 100 (0 no effect, 100 complete control); read-out: Pigweed plant response rating
# Description: […] At the same time, plants selected from these crop and weed species and also blackgrass (Alopecurus myosuroides) and wild oat (Avena fatua) were treated with postemergence applications of test chemicals formulated in the same manner. […] Treated plants and controls were maintained in a greenhouse for 13 to 15 days, after which time all species were compared to controls and visually evaluated. […]
Give your result in % as a bare value.

// query pest or weed control at 500 g/ha value for entry Nc1nc(C2CC2)nc(C(=O)O)c1Br 100

// query pest or weed control at 500 g/ha value for entry COC(=O)c1nc(C2CC2)nc(N)c1Br 100

// query pest or weed control at 500 g/ha value for entry CCOC(=O)c1nc(C2CC2)nc(N)c1F 90

// query pest or weed control at 500 g/ha value for entry COC(=O)c1nc(C2CC2)nc(N)c1I 90

// query pest or weed control at 500 g/ha value for entry COC(=O)c1nc(C2CC2)nc(N)c1F 90

----------
# System: soybean (Glycine max)
# Protocol: Test C pre/postemergence
# Assay type: in vivo
# Test parameters: Postemergence, 31 g ai/ha
Give measured Plant response rating (scale of 0 to 100), Soybean for each item. Keep answers brief.
Reply with just the number.

// query Plant response rating (scale of 0 to 100), Soybean value for entry COC(=O)c1nc(-c2ccc(Cl)cc2)nc(N)c1Br 90

// query Plant response rating (scale of 0 to 100), Soybean value for entry COCc1nc(C2CC2)nc(N)c1Br 60

// query Plant response rating (scale of 0 to 100), Soybean value for entry CCOC(=O)c1nc(-c2ccc(I)cc2)nc(N)c1Cl 95

// query Plant response rating (scale of 0 to 100), Soybean value for entry CCCCOC(=O)c1nc(C2CC2)nc(N)c1Br 85

----------
# Test system: velvetleaf (Abutilon theophrasti)
# Protocol: Test C pre/postemergence
# Type: in vivo
# Test parameters: Postemergence, 500 g ai/ha; scale 0 to 100
# Text: […]
Quantity measured: Plant response rating, Velvetleaf
Reply with just the number.

// query Plant response rating, Velvetleaf value for entry CNN=Cc1nc(C2CC2)nc(N)c1Br [Compound 49] 80

// query Plant response rating, Velvetleaf value for entry CN(C)N=Cc1nc(C2CC2)nc(N)c1Br [Compound 50] 80

// query Plant response rating, Velvetleaf value for entry CCOC(=O)c1nc(-c2ccc(Cl)cc2)nc(N)c1Br [Compound 37] 95

// query Plant response rating, Velvetleaf value for entry Nc1nc(C2CC2)nc(C=NO)c1Br [Compound 27] 30

----------
# Test system: corn (Zea mays)
# Protocol: Test C pre/postemergence
# Format: in vivo
# Test parameters: Postemergence, 16 g ai/ha
Quantity measured: Plant response rating (scale of 0 to 100), Corn
Reply with just the number.

Enter reported Plant response rating (scale of 0 to 100), Corn observed with corn (Zea mays) for Nc1nc(-c2ccc(Br)cc2)nc(C(=O)O)c1Br [Compound 136] 35

Enter reported Plant response rating (scale of 0 to 100), Corn observed with corn (Zea mays) for COCc1nc(C2CC2)nc(N)c1Br [Compound 11] 0

Enter reported Plant response rating (scale of 0 to 100), Corn observed with corn (Zea mays) for COC(=O)c1nc(-c2ccc(Cl)cc2)nc(N)c1Br [Compound 83] 5

Enter reported Plant response rating (scale of 0 to 100), Corn observed with corn (Zea mays) for CCOC(=O)c1nc(-c2ccc(I)cc2)nc(N)c1Cl [Compound 133] 35

----------
# Tested on: velvetleaf (Abutilon theophrasti)
# Protocol: Test C pre/postemergence
# Format: in vivo
# Test parameters: Postemergence, 250 g ai/ha; scale 0 to 100
Quantity measured: Plant response rating, Velvetleaf
Reply with just the number.

Enter reported Plant response rating, Velvetleaf observed with velvetleaf (Abutilon theophrasti) for CN(C)N=Cc1nc(C2CC2)nc(N)c1Br 70

Enter reported Plant response rating, Velvetleaf observed with velvetleaf (Abutilon theophrasti) for CCCOC(=O)c1nc(C2CC2)nc(N)c1Br 85

Enter reported Plant response rating, Velvetleaf observed with velvetleaf (Abutilon theophrasti) for CCOC(=O)c1nc(-c2ccc(Cl)cc2)nc(N)c1Br 90

Enter reported Plant response rating, Velvetleaf observed with velvetleaf (Abutilon theophrasti) for Nc1nc(C2CC2)nc(C=NO)c1Br 0

----------
Give measured Plant response rating (scale of 0 to 100), Pigweed for each item. Keep answers brief.
# Test system: pigweed (Amaranthus retroflexus)
# Protocol: Test C pre/postemergence
# Format: in vivo
# Test parameters: Postemergence, 31 g ai/ha
Reply with just the number.

// query Plant response rating (scale of 0 to 100), Pigweed value for entry Nc1nc(-c2ccc(Cl)cc2)nc(C(=O)[O-])c1Cl.[Na+] 95

// query Plant response rating (scale of 0 to 100), Pigweed value for entry CCOC(=O)c1nc(-c2ccc(I)cc2)nc(N)c1Cl 85

// query Plant response rating (scale of 0 to 100), Pigweed value for entry Nc1nc(-c2ccc(Cl)cc2)nc(C(=O)O)c1Br 95

// query Plant response rating (scale of 0 to 100), Pigweed value for entry COC(=O)c1nc(C2CC2)nc(N=CN(C)C)c1Br 50

----------
# Tested on: purple redstem (Ammannia coccinea)
# Protocol: Test E flooded paddy water application
# Type: in vivo
# Test parameters: 125 g ai/ha; Flood; 21 days; scale 0 to 100 (0 no effect, 100 complete control)
Give measured Redstem plant response rating for each item. Keep answers brief.
Reply with just the number.

// query Redstem plant response rating value for entry Nc1nc(-c2ccc(Cl)cc2)nc(C(=O)O)c1Br [Compound 88] 0

// query Redstem plant response rating value for entry CCOC(=O)c1nc(-c2ccc(I)cc2)nc(N)c1Cl [Compound 133] 75

// query Redstem plant response rating value for entry CCOC(=O)c1nc(-c2ccc(OC)cc2)nc(N)c1Cl [Compound 98] 40

// query Redstem plant response rating value for entry CCOC(=O)c1nc(-c2ccc(C)c(C)c2)nc(N)c1Br [Compound 70] 0

// query Redstem plant response rating value for entry CCOC(=O)c1nc(-c2ccc(C)c(C)c2)nc(N)c1Cl [Compound 71] 0

----------
# Tested on: lambsquarters (Chenopodium album)
# Protocol: Test B pre/postemergence
# Assay type: in vivo
# Test parameters: Postemergence, 62 g ai/ha; scale 0 to 100 (0 no effect, 100 complete control)
# Experimental: […] At the same time, plants selected from these crop and weed species and also blackgrass (Alopecurus myosuroides) and wild oat (Avena fatua) were treated with postemergence applications of test chemicals formulated in the same manner. […] Treated plants and controls were maintained in a greenhouse for 13 to 15 days, after which time all species were compared to controls and visually evaluated. […]
Give measured Lambsquarters plant response rating for each item. Keep answers brief.
Reply with just the number.

// query Lambsquarters plant response rating value for entry COC(=O)c1nc(-c2ccc(Br)cc2)nc(N)c1Br 100

// query Lambsquarters plant response rating value for entry CCOC(OCC)c1nc(C2CC2)nc(N)c1Br 10

// query Lambsquarters plant response rating value for entry COC(=O)c1nc(-c2ccc(Cl)cc2)nc(N)c1Br 100

// query Lambsquarters plant response rating value for entry Nc1nc(-c2ccc(Cl)cc2)nc(C(=O)O)c1Br 100

// query Lambsquarters plant response rating value for entry CCOC(=O)c1nc(-c2ccc(I)cc2)nc(N)c1Cl 100

Measured values drawn from patent US8802597B2 for this set.
